Every entry's value here was drawn from patent US10660877B2.

target: human TLR9 (Homo sapiens (Human)); experiment: TLR9 inhibition reporter assay (HEK-Blue cells, SEAP reporter, ODN2006 stimulation); conditions: read-out: TLR9 IC50, HEK-Blue cells overexpressing human TLR9, ODN2006 5 nM;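 further: compounds tested over 0.05 nM to 50 µM, 22 h incubation, inhibition taken as SEAP signal drop from agonist plus DMSO wells toward a known inhibitor control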
Sequence (Q9NR96 26-1032): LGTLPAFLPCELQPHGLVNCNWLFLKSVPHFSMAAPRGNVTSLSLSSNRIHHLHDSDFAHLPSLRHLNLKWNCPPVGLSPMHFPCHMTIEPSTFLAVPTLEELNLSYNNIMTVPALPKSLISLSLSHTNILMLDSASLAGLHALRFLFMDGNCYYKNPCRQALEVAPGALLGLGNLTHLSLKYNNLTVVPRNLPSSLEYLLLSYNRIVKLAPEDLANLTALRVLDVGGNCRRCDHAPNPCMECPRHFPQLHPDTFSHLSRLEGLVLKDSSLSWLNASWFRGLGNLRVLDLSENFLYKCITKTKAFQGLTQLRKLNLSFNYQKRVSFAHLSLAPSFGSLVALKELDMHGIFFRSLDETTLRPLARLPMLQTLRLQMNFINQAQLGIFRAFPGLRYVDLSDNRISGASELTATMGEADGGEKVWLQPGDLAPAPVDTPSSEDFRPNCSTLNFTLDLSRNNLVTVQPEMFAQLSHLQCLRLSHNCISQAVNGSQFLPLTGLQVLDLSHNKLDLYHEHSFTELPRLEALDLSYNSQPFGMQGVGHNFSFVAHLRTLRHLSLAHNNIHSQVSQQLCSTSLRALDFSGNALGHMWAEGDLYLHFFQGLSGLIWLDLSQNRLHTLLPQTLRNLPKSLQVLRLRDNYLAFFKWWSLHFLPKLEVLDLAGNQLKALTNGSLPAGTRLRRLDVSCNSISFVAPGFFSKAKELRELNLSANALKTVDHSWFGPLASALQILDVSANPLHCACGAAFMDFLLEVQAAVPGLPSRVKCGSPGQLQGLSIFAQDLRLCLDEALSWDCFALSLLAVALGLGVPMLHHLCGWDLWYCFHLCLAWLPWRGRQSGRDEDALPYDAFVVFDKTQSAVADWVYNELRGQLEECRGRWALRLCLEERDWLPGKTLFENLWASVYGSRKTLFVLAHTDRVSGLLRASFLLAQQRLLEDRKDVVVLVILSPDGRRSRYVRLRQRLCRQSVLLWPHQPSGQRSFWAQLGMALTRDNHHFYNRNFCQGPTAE
So basically: is IC50 under 0.7 µM? Then Yes. Not under? Then No.

Cc1cc(-c2[nH]c3ccc(C4CCNCC4)cc3c2CC(F)F)cc(C)n1 ... Yes
Cc1cc(-c2[nH]c3ccc(C4CCN(C(=O)CCN5CCOCC5)CC4)cc3c2C(C)C)cc(C)n1 ... No
Cc1cc(-c2[nH]c3ccc(C4CCN(C(=O)C[C@H]5CCCN5)CC4)cc3c2C(C)C)cc(C)n1 ... Yes

For the next question, use this molecule.
is_below(IC50, 0.7 µM) for Cc1cc(-c2[nH]c3ccc(C4CC(C)(C)N(C)C(C)(C)C4)cc3c2C(C)C)cc(C)n1 ?
No

====

Listing: IC50 of selected compounds
molecular target: human TLR7 (Homo sapiens (Human)); assay: TLR7 inhibition reporter assay (HEK-Blue cells, SEAP reporter, gardiquimod stimulation); type: cell-based; conditions: HEK-Blue cells, gardiquimod 7.5 μM

Cc1cc(-c2[nH]c3ccc(C4CCN(C5CCN(C(C)C)CC5)CC4)cc3c2C)c(C)cn1 ... 0.0507 µM

For CC(=O)N1CCC(c2cc3c(C(C)C)c(-c4cc(C)nc(C)c4)[nH]c3cc2F)CC1 the compound record lists IC50 as 0.0175 µM

Notebook: Cc1cc(-c2[nH]c3ccc(C4CCN(C=O)CC4)cc3c2C(C)C)cc(C)n1 , IC50 read as 0.0051 µM

Input Cc1cc(-c2[nH]c3ccc(C4CCN(CC5(C)COC5)CC4)cc3c2C(C)C)ccn1 . Output IC50: 0.0163 µM

====

IC50 for assorted compounds
target: human TLR7 (Homo sapiens (Human), UniProt Q9NYK1); experiment: TLR7 inhibition reporter assay (HEK-Blue cells, SEAP reporter, gardiquimod stimulation); assay type: cell-based; conditions: HEK-Blue cells overexpressing human TLR7, gardiquimod 7.5 μM
Sequence (Q9NYK1 27-1049): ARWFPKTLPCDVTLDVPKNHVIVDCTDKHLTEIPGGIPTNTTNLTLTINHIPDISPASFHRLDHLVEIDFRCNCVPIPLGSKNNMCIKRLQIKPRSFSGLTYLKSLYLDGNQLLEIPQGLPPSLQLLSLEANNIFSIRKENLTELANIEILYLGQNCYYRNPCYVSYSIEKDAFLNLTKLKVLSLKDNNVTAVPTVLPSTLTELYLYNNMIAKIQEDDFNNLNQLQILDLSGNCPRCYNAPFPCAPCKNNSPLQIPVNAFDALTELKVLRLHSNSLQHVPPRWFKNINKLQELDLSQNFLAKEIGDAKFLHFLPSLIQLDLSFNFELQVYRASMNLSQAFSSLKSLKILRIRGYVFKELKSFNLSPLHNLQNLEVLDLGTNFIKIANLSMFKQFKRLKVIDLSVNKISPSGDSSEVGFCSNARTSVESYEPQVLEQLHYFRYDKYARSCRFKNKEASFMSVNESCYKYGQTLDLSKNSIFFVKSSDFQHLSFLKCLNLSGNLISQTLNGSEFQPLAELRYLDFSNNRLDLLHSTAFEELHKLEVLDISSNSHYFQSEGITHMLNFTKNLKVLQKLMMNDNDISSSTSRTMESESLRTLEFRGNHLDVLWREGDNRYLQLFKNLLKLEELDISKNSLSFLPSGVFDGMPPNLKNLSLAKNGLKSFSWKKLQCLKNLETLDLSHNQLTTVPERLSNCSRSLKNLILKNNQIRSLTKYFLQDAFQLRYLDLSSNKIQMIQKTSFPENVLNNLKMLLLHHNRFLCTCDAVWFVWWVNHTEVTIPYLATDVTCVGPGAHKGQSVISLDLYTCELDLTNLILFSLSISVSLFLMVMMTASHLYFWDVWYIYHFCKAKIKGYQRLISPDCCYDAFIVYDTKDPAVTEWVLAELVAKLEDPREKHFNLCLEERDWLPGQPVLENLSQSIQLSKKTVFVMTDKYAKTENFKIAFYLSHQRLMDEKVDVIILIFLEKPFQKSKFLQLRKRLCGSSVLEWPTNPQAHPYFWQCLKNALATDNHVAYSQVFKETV
Response body: numeric value in nM, unit text excluded.

Take a look at these entries with their results.
Cc1cc(-c2[nH]c3ccc(C4CCN(C(=O)Cn5ccccc5=O)CC4)cc3c2C(C)C)cc(C)n1 ... 16.5
Cc1cc(-c2[nH]c3ccc(C4CCNCC4O)cc3c2C(C)C)cc(C)n1 (single isomer, unassigned) [Example 488A] ... 2.7

// sample Cc1cc(-c2[nH]c3ccc(C4CCN(S(=O)(=O)C(C)C)CC4)cc3c2C(C)C)ccn1 , its IC50 was 119

Recorded result, Cc1cc(-c2[nH]c3ccc(C4CCN(C(=O)CNC5CCCOC5)CC4)cc3c2C(C)C)cc(C)n1 (stereo not shown) , IC50: 3.2

====

Reported pIC50 values for a set of molecules
target: UniProt Q9NYK1; test: TLR7 inhibition reporter assay (HEK-Blue cells, SEAP reporter, gardiquimod stimulation); type: cell-based; conditions: HEK-Blue cells overexpressing human TLR7, gardiquimod 7.5 μM
Scale for pIC50: -log10 of concentration given in mol/L; no unit attached.

Example entries begin here.
CCc1c(-c2ccncc2)[nH]c2ccc(C3CCN(C4CCN(C(C)C)CC4)CC3)cc12 [Example 804] ... 6.67
Cc1cc(-c2[nH]c3ccc(C4CCN(C5CCOC(C)(C)C5)CC4)cc3c2C(C)C)cc(C)n1 (stereo not shown) [Example 453] ... 8.07
Cc1cc(-c2[nH]c3ccc(C4CCN(CC(=O)N(C)C5CCOC5)CC4)cc3c2C(C)C)cc(C)n1 (stereo not shown) [Example 289] ... 8.22

For this molecule ( Cc1cc(-c2[nH]c3ccc(C4CCN(CC(=O)N(C)CC#N)CC4)cc3c2C(C)C)cc(C)n1 [Example 247] ), measured pIC50 is 8.52
